- Test target: Cannabinoid receptor 2 (Homo sapiens, UniProt P34972, V36M)
- Sequence (P34972 whole entry V36M): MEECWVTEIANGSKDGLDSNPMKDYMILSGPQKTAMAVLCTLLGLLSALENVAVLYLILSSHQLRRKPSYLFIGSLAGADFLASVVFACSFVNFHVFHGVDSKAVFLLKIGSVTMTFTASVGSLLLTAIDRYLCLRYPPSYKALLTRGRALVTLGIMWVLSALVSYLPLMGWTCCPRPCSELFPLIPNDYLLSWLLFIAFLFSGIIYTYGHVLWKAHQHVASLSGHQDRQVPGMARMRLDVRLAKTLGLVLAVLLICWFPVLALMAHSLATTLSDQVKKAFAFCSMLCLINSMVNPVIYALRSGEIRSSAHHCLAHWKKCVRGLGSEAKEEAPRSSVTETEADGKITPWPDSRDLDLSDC
- Assay explanation: Partial agonist activity at CBR2 V361.35M mutant (unknown origin) expressed in HEK293T assessed as increase in ERK1/2 phosphorylation incubated for 7 mins in presence of cannabidiol by AlphaScreenSureFire method
- Format: functional, cell-based
Reported endpoint: pEC50
pEC50 field: float, defined as -log10 of concentration (mol/L).

Asked: Answer with reported pEC50 of "CCCC(C)(C)c1cc(O)c2c(c1)OC(C)(C)[C@@H]1CC=C(C)C[C@@H]21"
Given back: 7.40

---

- Test target: Cannabinoid receptor 2 (Homo sapiens, UniProt P34972, V113M)
- Sequence (P34972 whole entry V113M): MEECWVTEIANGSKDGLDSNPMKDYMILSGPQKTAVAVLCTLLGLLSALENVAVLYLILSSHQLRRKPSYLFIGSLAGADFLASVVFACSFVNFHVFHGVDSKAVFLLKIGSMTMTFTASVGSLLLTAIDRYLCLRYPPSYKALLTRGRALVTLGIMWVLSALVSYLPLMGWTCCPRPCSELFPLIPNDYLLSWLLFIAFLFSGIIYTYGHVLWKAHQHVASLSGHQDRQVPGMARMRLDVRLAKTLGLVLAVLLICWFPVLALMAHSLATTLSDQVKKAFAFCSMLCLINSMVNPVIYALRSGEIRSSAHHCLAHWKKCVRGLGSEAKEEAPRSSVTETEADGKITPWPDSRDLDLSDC
- Assay explanation: Partial agonist activity at CBR2 V1133.32M mutant (unknown origin) stably expressed in HEK293T assessed as decrease in forskolin induced cAMP level preincubated for 15 mins followed by forskolin addition incubated for 15 mins by HTRF assay
- Type: functional, cell-based
Reported endpoint: EC50 (µM)
Reply with just the number (in µM).

Asked: Look up EC50 of "CCCC(C)(C)c1cc(O)c2c(c1)OC(C)(C)[C@@H]1CC=C(C)C[C@@H]21" and report it.
Given back: 0.02
